pEC50 values by entry
- tested_on: T1, Peptide-12 (cysteine pairing not given here; also: biotinylated (site not given here))
- T1 peptide: PDFCAVYRWPICYQ
- method_summary: ELISA, Fab on captured biotin-peptide
pEC50: −log10 of the molar value. Where no end group is shown, it is not given here.
measured_metric: pEC50

INSERT INTO results (binder, measured_metric, recorded_measurement) VALUES
  ('TBD-11 (HC R98A) (Fab, V domains shown, Fab; also called HC R98A mutant) VH: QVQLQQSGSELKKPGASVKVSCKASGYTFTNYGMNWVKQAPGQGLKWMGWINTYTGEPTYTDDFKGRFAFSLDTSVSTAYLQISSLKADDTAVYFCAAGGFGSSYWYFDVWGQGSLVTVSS VL: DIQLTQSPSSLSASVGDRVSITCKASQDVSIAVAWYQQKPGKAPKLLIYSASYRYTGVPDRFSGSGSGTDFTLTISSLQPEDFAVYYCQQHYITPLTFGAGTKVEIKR', 'pEC50', 6.80),
  ('TBD-17 (HC S104A) (Fab, V domains shown, Fab; also called HC S104A mutant) VH: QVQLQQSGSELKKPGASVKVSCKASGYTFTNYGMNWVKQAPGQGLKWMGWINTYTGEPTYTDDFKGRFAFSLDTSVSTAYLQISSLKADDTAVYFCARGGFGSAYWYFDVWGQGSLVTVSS VL: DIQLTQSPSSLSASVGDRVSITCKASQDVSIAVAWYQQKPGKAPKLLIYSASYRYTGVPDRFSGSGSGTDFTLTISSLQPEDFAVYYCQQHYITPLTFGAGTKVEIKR', 'pEC50', 8.17),
  ('TBD-6 (LC I93A) (Fab, V domains shown, Fab; also called LC I93A mutant) VH: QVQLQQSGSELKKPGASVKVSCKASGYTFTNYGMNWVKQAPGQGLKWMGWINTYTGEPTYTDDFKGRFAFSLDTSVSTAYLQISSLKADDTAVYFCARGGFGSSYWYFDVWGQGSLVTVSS VL: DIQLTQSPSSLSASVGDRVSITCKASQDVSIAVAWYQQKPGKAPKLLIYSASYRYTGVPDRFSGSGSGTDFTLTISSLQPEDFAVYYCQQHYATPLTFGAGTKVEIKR', 'pEC50', 7.74),
  ('TBD-22 (HC D109A) (Fab, V domains shown, Fab; also called HC D109A mutant) VH: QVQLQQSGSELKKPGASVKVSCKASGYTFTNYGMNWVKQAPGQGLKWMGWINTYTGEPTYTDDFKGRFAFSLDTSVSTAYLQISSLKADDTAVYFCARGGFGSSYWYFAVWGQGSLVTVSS VL: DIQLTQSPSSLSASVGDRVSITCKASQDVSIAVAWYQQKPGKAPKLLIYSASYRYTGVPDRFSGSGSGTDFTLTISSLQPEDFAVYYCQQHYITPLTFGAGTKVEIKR', 'pEC50', 9.22);
